measured_on: Nicotinic acetylcholine receptor (Rattus leucopus)
Sequence (Q62594 whole entry): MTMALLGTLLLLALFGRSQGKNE
value_kind: Ki (nM)
Form entry: value (nM) — number only.

Data request: Bench note: what Ki did C=C(C=O)C[C@H]1C[C@H](O)[C@]2(C)O[C@@H]3C[C@@H]4O[C@@H]5C[C@]6(C)O[C@]7(C)CC[C@@H]8O[C@@H]9C[C@]%10(C)O[C@@H]%11C(C)=CC(=O)O[C@H]%11C[C@H]%10O[C@H]9C[C@@H](C)[C@H]8O[C@H]7C[C@H]6O[C@@]5(C)C/C=C\[C@H]4O[C@H]3C[C@H]2O1 show?
Data returned: 2500

###

pKi: −log10 of the molar value.
Quick note: these are pKi numbers for system: Nicotinic acetylcholine receptor (Rattus leucopus)

| compound | pKi |
| --- | --- |
| COc1cc2c3cc1Oc1cc(ccc1O)CC1c4c(cc(OC)c(O)c4Oc4ccc(cc4)CC3[N+](C)(C)CC2)CC[N+]1(C)C (stereo not drawn) | 6.14 |

Data request: Bench note: what pKi did CNC(=O)Oc1ccc2c(c1)[C@]1(C)CCN(C)C1N2C (stereo partly drawn) show?
Data returned: < 5.00

Data request: Bench note: what pKi did C=CCN1CC[C@]23c4c5ccc(O)c4O[C@H]2C(=O)CC[C@@]3(O)[C@H]1C5 show?
Data returned: < 5.00

###

Quick note: these are Ki numbers for system: Neuronal acetylcholine receptor subunit alpha-4 (Rattus norvegicus)
Sequence (P09483 whole entry): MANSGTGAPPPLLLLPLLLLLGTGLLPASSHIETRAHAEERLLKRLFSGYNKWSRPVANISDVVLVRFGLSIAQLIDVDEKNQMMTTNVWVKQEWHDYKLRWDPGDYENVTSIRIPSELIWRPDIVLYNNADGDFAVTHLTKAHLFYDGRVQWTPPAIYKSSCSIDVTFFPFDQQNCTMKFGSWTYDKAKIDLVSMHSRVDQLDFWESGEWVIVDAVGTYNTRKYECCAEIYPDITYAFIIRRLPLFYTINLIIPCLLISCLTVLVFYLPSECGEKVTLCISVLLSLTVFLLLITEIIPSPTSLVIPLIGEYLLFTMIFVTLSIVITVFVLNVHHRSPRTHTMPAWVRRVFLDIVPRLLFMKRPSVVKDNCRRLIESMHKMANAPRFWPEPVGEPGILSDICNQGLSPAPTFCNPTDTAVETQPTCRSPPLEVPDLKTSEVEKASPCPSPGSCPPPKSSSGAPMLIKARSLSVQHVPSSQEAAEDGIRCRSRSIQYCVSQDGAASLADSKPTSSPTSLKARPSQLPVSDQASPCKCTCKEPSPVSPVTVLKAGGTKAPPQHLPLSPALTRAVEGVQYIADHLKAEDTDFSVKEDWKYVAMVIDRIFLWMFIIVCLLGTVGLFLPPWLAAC
Form entry: value (nM) — number only.

| molecule | Ki [nM] |
| --- | --- |
| O=c1cccc2n1C[C@H]1CNC[C@H]2C1 | 0.18 |
| Ic1ccc(C2CC3CCC2N3)cn1 (stereo not drawn) [IPH] | 0.02 |

Attention now shifts to the item below.
Data request: Bench note: what Ki did c1cncc(OC[C@@H]2CCN2)c1 show?
Data returned: 0.01
